experiment: pharmacokinetic assay in rats; type: in vivo, Sprague-Dawley (SD) rats; conditions: Sprague-Dawley, rat, plasma, po, intragastric, 27 mg/kg, single, read-out: Resistance time MRT0-∞

- molecule: "O=C([O-])C1(Sc2ccnc3ccc(Br)cc23)CCC1.[Na+] [Example 1]"
  unitAbbreviation: "h"
  MRT inf: 7.09

====

experiment: pharmacokinetic assay in dogs; type: in vivo, Beagle dogs; conditions: Beagle, dog, plasma, po, intragastric, 3 mg/kg, single, read-out: Area under curve AUC0-t

- structureAsSmiles: "O=C([O-])C1(Sc2ccnc3ccc(Br)cc23)CCC1.[Na+]"
  AUC(0-t): "8630 ng·h/mL"

====

test: pharmacokinetic assay in rats; format: in vivo, Sprague-Dawley (SD) rats; settings: Sprague-Dawley, rat, plasma, po, intragastric, 9 mg/kg, single, read-out: Resistance time MRT0-∞

- molecule: "O=C([O-])C1(Sc2ccnc3ccc(Br)cc23)CCC1.[Na+] [Example 1]"
  MRT inf, h: 7.11

====

Test: pharmacokinetic assay in dogs
Assay type: in vivo, Beagle dogs
Settings: Beagle, dog, plasma, po, intragastric, 3 mg/kg, single, read-out: Plasma concentration Cmax
Description: In the pharmacokinetic assay of the compound of Example 1 of the present invention, Beagle dogs were used as test animals. The compound of Example 1 was administrated intragastrically and intravenously to dogs, then the drug concentration in the plasma at different time points was determined by a LC/MS/MS method to study the pharmacokinetic behavior and to evaluate the pharmacokinetic characteristics of the compound of the present invention in dogs.
measuredEndpoint: Cmax (ng/mL)

- structureAsSmiles: "O=C([O-])C1(Sc2ccnc3ccc(Br)cc23)CCC1.[Na+]"
  unitAbbreviation: "ng/mL"
  reportedMeasurement: 8450

====

assay: pharmacokinetic assay in dogs; type: in vivo, Beagle dogs; details: Beagle, dog, plasma, intravenous, 3 mg/kg, single, read-out: Resistance time MRT0-∞

- structureAsSmiles: "O=C([O-])C1(Sc2ccnc3ccc(Br)cc23)CCC1.[Na+]"
  MRT inf: "3.57 h"

====

experiment: solubility in water; assay type: physicochemical

- structureAsSmiles: "O=C([O-])C1(Sc2ccnc3ccc(Br)cc23)CCC1.[Na+]"
  unitAbbreviation: "µg/mL"
  solubility: 140

====

test: pharmacokinetic assay in rats; format: in vivo, Sprague-Dawley (SD) rats; settings: Sprague-Dawley, rat, plasma, po, intragastric, 9 mg/kg, single, read-out: Area under curve AUC0-t

- structureAsSmiles: "O=C([O-])C1(Sc2ccnc3ccc(Br)cc23)CCC1.[Na+]"
  unitAbbreviation: "µg·h/mL"
  AUC(0-t): 119

====

test: pharmacokinetic assay in rats; format: in vivo, Sprague-Dawley (SD) rats; details: Sprague-Dawley, rat, plasma, po, intragastric, 3 mg/kg, single, read-out: Half life t1/2 (converted)
measuredEndpoint: half-life

- compound: "O=C([O-])C1(Sc2ccnc3ccc(Br)cc23)CCC1.[Na+] [Example 1]"
  measuredEndpoint: "half-life"
  reportedMeasurement: "4.58 h"

====

Assay: pharmacokinetic assay in dogs
Type: in vivo, Beagle dogs
Conditions: Beagle, dog, plasma, po, intragastric, 9 mg/kg, single, read-out: Resistance time MRT0-∞
Protocol: In the pharmacokinetic assay of the compound of Example 1 of the present invention, Beagle dogs were used as test animals. The compound of Example 1 was administrated intragastrically and intravenously to dogs, then the drug concentration in the plasma at different time points was determined by a LC/MS/MS method to study the pharmacokinetic behavior and to evaluate the pharmacokinetic characteristics of the compound of the present invention in dogs.
measuredEndpoint: MRT inf (h)

- structureAsSmiles: "O=C([O-])C1(Sc2ccnc3ccc(Br)cc23)CCC1.[Na+]"
  reportedMeasurement: 3.48

====

assay: pharmacokinetic assay in rats; type: in vivo, Sprague-Dawley (SD) rats; conditions: Sprague-Dawley, rat, plasma, po, intragastric, 3 mg/kg, single, read-out: Area under curve AUC0-t

- molecule: "O=C([O-])C1(Sc2ccnc3ccc(Br)cc23)CCC1.[Na+] [Example 1]"
  AUC(0-t): "41500 ng·h/mL"

====

test: pharmacokinetic assay in rats; format: in vivo, Sprague-Dawley (SD) rats; settings: Sprague-Dawley, rat, plasma, intravenous, 3 mg/kg, single, read-out: Resistance time MRT0-∞
measuredEndpoint: MRT inf (h)

- structureAsSmiles: "O=C([O-])C1(Sc2ccnc3ccc(Br)cc23)CCC1.[Na+]"
  unitAbbreviation: "h"
  reportedMeasurement: 6.18

====

assay: pharmacokinetic assay in dogs; type: in vivo, Beagle dogs; conditions: beagle, dog, plasma, po, intragastric, 27 mg/kg, single, read-out: Area under curve AUC0-t

- structureAsSmiles: "O=C([O-])C1(Sc2ccnc3ccc(Br)cc23)CCC1.[Na+]"
  AUC(0-t) / µg·h/mL: 105

====

assay: pharmacokinetic assay in rats; format: in vivo, Sprague-Dawley (SD) rats; settings: Sprague-Dawley, rat, plasma, po, intragastric, 9 mg/kg, single, read-out: Half life t1/2 (converted)

- structureAsSmiles: "O=C([O-])C1(Sc2ccnc3ccc(Br)cc23)CCC1.[Na+]"
  half-life (h): 5.07

====

assay: pharmacokinetic assay in rats; assay type: in vivo, Sprague-Dawley (SD) rats; conditions: Sprague-Dawley, rat, plasma, po, intragastric, 27 mg/kg, single, read-out: Half life t1/2 (converted)

- structureAsSmiles: "O=C([O-])C1(Sc2ccnc3ccc(Br)cc23)CCC1.[Na+]"
  unitAbbreviation: "h"
  half-life: 4.59

====

assay: pharmacokinetic assay in dogs; type: in vivo, Beagle dogs; conditions: Beagle, dog, plasma, po, intragastric, 3 mg/kg, single, read-out: Half life t1/2 (converted)
measuredEndpoint: half-life (h)

- compound: "O=C([O-])C1(Sc2ccnc3ccc(Br)cc23)CCC1.[Na+] [Example 1]"
  reportedMeasurement: 3.49

====

Experiment: pharmacokinetic assay in dogs
Type: in vivo, Beagle dogs
Conditions: beagle, dog, plasma, po, intragastric, 27 mg/kg, single, read-out: Plasma concentration Cmax
Experimental: In the pharmacokinetic assay of the compound of Example 1 of the present invention, Beagle dogs were used as test animals. The compound of Example 1 was administrated intragastrically and intravenously to dogs, then the drug concentration in the plasma at different time points was determined by a LC/MS/MS method to study the pharmacokinetic behavior and to evaluate the pharmacokinetic characteristics of the compound of the present invention in dogs.

- structureAsSmiles: "O=C([O-])C1(Sc2ccnc3ccc(Br)cc23)CCC1.[Na+]"
  unitAbbreviation: "µg/mL"
  Cmax: 78.6

====

assay: pharmacokinetic assay in rats; assay type: in vivo, Sprague-Dawley (SD) rats; settings: Sprague-Dawley, rat, plasma, po, intragastric, 3 mg/kg, single, read-out: Resistance time MRT0-∞
measuredEndpoint: MRT inf (h)

- compound: "O=C([O-])C1(Sc2ccnc3ccc(Br)cc23)CCC1.[Na+] [Example 1]"
  reportedMeasurement: 6.15

====

Assay: pharmacokinetic assay in dogs
Format: in vivo, Beagle dogs
Details: beagle, dog, plasma, po, intragastric, 27 mg/kg, single, read-out: Resistance time MRT0-∞
Procedure: In the pharmacokinetic assay of the compound of Example 1 of the present invention, Beagle dogs were used as test animals. The compound of Example 1 was administrated intragastrically and intravenously to dogs, then the drug concentration in the plasma at different time points was determined by a LC/MS/MS method to study the pharmacokinetic behavior and to evaluate the pharmacokinetic characteristics of the compound of the present invention in dogs.
measuredEndpoint: MRT inf (h)

- structureAsSmiles: "O=C([O-])C1(Sc2ccnc3ccc(Br)cc23)CCC1.[Na+]"
  measuredEndpoint: "MRT inf"
  reportedMeasurement: 3.38

====

assay: pharmacokinetic assay in rats; format: in vivo, Sprague-Dawley (SD) rats; settings: Sprague-Dawley, rat, plasma, po, intragastric, 27 mg/kg, single, read-out: Plasma concentration Cmax

- structureAsSmiles: "O=C([O-])C1(Sc2ccnc3ccc(Br)cc23)CCC1.[Na+]"
  unitAbbreviation: "ng/mL"
  Cmax: 38800

====

experiment: pharmacokinetic assay in dogs; format: in vivo, Beagle dogs; conditions: Beagle, dog, plasma, po, intragastric, 3 mg/kg, single, read-out: Resistance time MRT0-∞

- structureAsSmiles: "O=C([O-])C1(Sc2ccnc3ccc(Br)cc23)CCC1.[Na+]"
  unitAbbreviation: "h"
  MRT inf: 3.03
